# test.system: LmjIPCS (inositol phosphorylceramide synthase from L. major) (Leishmania major, UniProt E9AFX2)
# Sequence (E9AFX2 1-338): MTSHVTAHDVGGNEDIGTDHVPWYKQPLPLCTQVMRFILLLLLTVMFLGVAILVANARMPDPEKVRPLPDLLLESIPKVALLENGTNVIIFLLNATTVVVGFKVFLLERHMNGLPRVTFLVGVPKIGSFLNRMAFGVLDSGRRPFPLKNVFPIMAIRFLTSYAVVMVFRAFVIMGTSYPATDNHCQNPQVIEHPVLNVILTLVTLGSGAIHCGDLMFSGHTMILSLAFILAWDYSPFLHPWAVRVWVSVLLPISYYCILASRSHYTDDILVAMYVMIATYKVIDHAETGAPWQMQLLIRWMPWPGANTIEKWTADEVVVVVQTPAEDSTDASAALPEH
# assay.comment: biochemical
# Format: biochemical
# cond: dose response; read-out: IC50 vs LmjIPCS
measured.endpoint: IC50

Requested read-out: IC50. Entry: N=C1C=CC(=C(c2ccc(N)cc2)c2ccc(N)cc2)C=C1 [pararosaniline 8, pararosaniline] > 100 µM
